- experiment: CMV-Luciferase Counterscreen for Inhibitors of ATXN expression; also: nearly all actives have a fitted effect of over 55% in size
- test parameters: HEK-293 CMV-luciferase reporter, luminescence, 24 h; series mostly up to 57.5 µM
About 670 (32%) of roughly 2,100 compounds were called active. About 50% were inconclusive and are not listed. Calls follow the shape of the dose curve; as a rule, active = well fitted inhibition curve with a large enough effect; inconclusive = small, poorly fitted or top-dose-only effect; inactive = no such curve, though single readings can be large or run the other way. Some of the results follow.
Field 'call' accepts active, inactive

Consider the following illustrative entries.
>>> df
                                   compound     group
0  O=C(CSC1c2ccccc2-c2ccccc21)N/N=C/c1ccccc1O    active
1  COc1ccc(CC2NCC(O)C2OC(C)=O)cc1 (stereo not given)    active
2  CCOC(=O)c1c(N)n(CCN2CCCCC2)c2nc3ccccc3nc12  inactive
3  CCCCCCC(=O)N/N=C/c1c(O)n(CCc2ccccc2)c(=O)[nH]c1=O    active
4  CCCCCCC(=O)N/N=C/c1c(O)n(CCCC)c(=S)[nH]c1=O    active
5  CCC(C)N1C(=O)/C(=C\c2cnc(N(C)C)nc2)C(=O)NC1=S (stereo not given)  inactive
6  CC1CC(C)CC(C)C(O)C(C#N)=CC=CCC(C2CCCC2C(=O)O)OC(=O)CC(O)C(C)C1 (stereo not given)    active
7  CCCCC(=O)N/N=C/c1c(O)n(CCC2=CCCCC2)c(=O)[nH]c1=O    active

I would be grateful if you could indicate the recorded call for COC(=O)c1nc(-c2ccc3c(n2)C(=O)C(N)=C(OC)C3=O)c(N)c(-c2ccc(OC)c(OC)c2O)c1C .
active

Field: outcome | Entry: CCC(C)OC(=O)c1c(N)n(Cc2cccs2)c2nc3ccccc3nc12 (stereo not given)
active

###

- experiment: CMV-Luciferase Counterscreen for Inhibitors of ATXN expression; also: nearly all actives have a fitted effect of over 55% in size
- test parameters: HEK-293 CMV-luciferase reporter, luminescence, 24 h; series mostly up to 57.5 µM
Screen size: about 2,100 compounds; about 670 (32%) were called active. Inconclusive results (about 50%) are left out. Calls come from the whole dose curve; as a rule, active = well fitted inhibition curve with a large enough effect; inconclusive = small, poorly fitted or top-dose-only effect; inactive = no such curve, though single readings can be large or run the other way. This is one part of the list.
Outcome (select one): True (active), False (inactive)

Solved entries:
>>> print(df.to_string())
                                   molecule  group
0  CSCCC(c1nnnn1-c1c(C)cccc1C)N1CCC2(CC1)C(=O)NCN2c1ccccc1 (centres undefined)   True
1  COc1ccc(N=Cc2c(O)n(-c3ccc(C)cc3)c(=O)[nH]c2=O)cc1  False
2  CC12CCC3C(CCC4(O)CC(O)CCC34C=NO)C1(O)CCC2C1=COC(=O)C1 (centres undefined)  False
3  CCOC(=O)[C@]12Cc3ccsc3[C@H]1N(Cc1ccccc1)C(=O)c1ccccc12   True
4  COC1C(O)C(C)OC(OC2CCC3(C)C(CCC4C3C(O)CC3(C)C(C5=CC(=O)OC5)CCC43O)C2)C1O (centres undefined)  False

Write down the call the test reported for this molecule. Item: O=c1[nH]c2ccccc2n1C1CCN(C(CCc2ccccc2)c2nnnn2C2CCCC2)CC1 (centres undefined)
True

What call does the record list for CC12CCC(O)CC1CCC1C2CCC2(C)C(C3=CC(=O)OC3)CCC12O (centres undefined) ?
False

Name the outcome recorded for CNC(=O)Nc1ccc(C(=O)N/N=C\C23CC[C@@H](O)CC2(O)CC[C@@H]2[C@@H]3CCC3(C)C(C4=CC(=O)OC4)CCC23O)cc1 (some centres undefined) in the assay.
False

Dear all, I need the recorded test outcome for c1ccc2sc(N3CCNCC3)nc2c1 , thank you.
False

Tell me the recorded outcome of this test for CCn1c(O)c(/C=N/NC(=O)c2ccccc2)c(=O)n(CC)c1=S .
False

Status in this test for CCC1CN2CCc3cc(OC)c(OC)cc3C2CC1CC1NCCc2c1[nH]c1ccc(O)cc21 (centres undefined) ?
True

Field: outcome | Entry: O=C1NC2C(=CC(O)C(O)C2O)c2cc3c(cc21)OCO3 (centres undefined)
True

Recorded call for COc1ccc2c(c1)C(c1ccc(N(CCCl)CCCl)cc1)=NCC2 ?
True

Per the assay record, what outcome was assigned to COc1cccc2c1cc([N+](=O)[O-])c1c(C(=O)O)cc3c(c12)OCO3 ?
False
